test: Chemopreventive activity in human Raji cells assessed as molar ratio of compound required to inhibit 50% of control of inhibition of TPA-induced EBV-early antigen activation after 48 hrs by immunofluorescence analysis; type: cell-based, human gammaherpesvirus 4
The following molecules are listed with their measured IC50 values.
Kindly answer with a numeric value in molar ratio, unit omitted.

Worked cases, IC50 given:
[[record]]
molecule = "CC(=O)NCCCCCCCNC(=O)[C@]12CC[C@@H](C(C)C)[C@@H]1[C@H]1CC[C@@H]3[C@@](C)(CCC(=O)O)[C@H](C(C)CO)CC[C@@]3(C)[C@]1(C)CC2 (stereo partly drawn)"
parametermeasured = "IC50"
testresult = 471

[[record]]
molecule = "C=C(C)[C@@H]1CC[C@]2(C)[C@H](CC[C@@H]3[C@H]4[C@H](C(C)C)CC[C@]4(C(=O)O)CC[C@]32C)[C@@]1(C)CCC(=O)O"
parametermeasured = "IC50"
testresult = 295

[[record]]
molecule = "COc1cc(/C=C/C(=O)CC(=O)/C=C/c2ccc(O)c(OC)c2)ccc1O [CURCUMIN]"
parametermeasured = "IC50"
testresult = 341

[[record]]
molecule = "CC(=O)NCCCCCCCNC(=O)[C@]12CC[C@@H](C(C)C)[C@@H]1[C@H]1CC[C@@H]3[C@@](C)(CCC(=O)O)[C@H](C(C)COC(=O)CC(C)(C)C(=O)O)CC[C@@]3(C)[C@]1(C)CC2 (stereo partly drawn)"
parametermeasured = "IC50"
testresult = 501

[[record]]
molecule = "C=C(C)[C@@H]1CC[C@]2(C)[C@H](CC[C@@H]3[C@H]4[C@H](C(C)C)CC[C@]4(C(=O)NCCCCCCCNC(C)=O)CC[C@]32C)[C@@]1(C)CCC(=O)OC"
parametermeasured = "IC50"
testresult = 479


Data request: GET /values?readout=IC50&item= C=C(C)[C@@H]1CC[C@]2(C)[C@H](CC[C@@H]3[C@H]4[C@H](C(C)C)CC[C@]4(C(=O)O)CC[C@]32C)[C@@]1(C)CCC(=O)OC
Data returned: 311

Data request: Please give the result for CC(=O)NCCCCCCCNC(=O)[C@]12CC[C@@H](C(C)C)[C@@H]1[C@H]1CC[C@@H]3[C@@]4(C)CCC(=O)OC(C)(C)[C@@H]4CC[C@@]3(C)[C@]1(C)CC2 too.
Data returned: 523

Data request: Please give the result for C=C(C)[C@@H]1CC[C@]2(C)[C@H](CC[C@@H]3[C@H]4[C@H](C(C)C)CC[C@]4(C(=O)NCCCCCCCNC(C)=O)CC[C@]32C)[C@@]1(C)CCC(=O)O too.
Data returned: 460

---

assay: Chemopreventive activity in human Raji cells assessed as molar ratio of compound required to inhibit 50% of control of inhibition of TPA-induced EBV-early antigen activation after 48 hrs by immunofluorescence analysis; type: cell-based, human gammaherpesvirus 4
parameterMeasured: IC50 (molar ratio)
Kindly answer with a numeric value in molar ratio, unit omitted.

[[record]]
compound = "COC(=O)CC[C@]1(C)[C@H]2CC[C@@H]3[C@H]4[C@H](C(C)C)CC[C@]4(C(=O)O)CC[C@@]3(C)[C@]2(C)CC[C@H]1C(C)COC(=O)CC(C)(C)C(=O)O (stereo not given in full)"
testresult = 386

[[record]]
compound = "C=C(C)[C@@H]1CC[C@]2(C(=O)O)CC[C@]3(C)[C@H](CC[C@@H]4[C@@]5(C)CC[C@H](OC(=O)CC(C)(C)C(=O)O)C(C)(C)[C@@H]5CC[C@]43C)[C@@H]12 [BEVIRIMAT]"
testresult = 396

[[record]]
compound = "COC(=O)CC[C@]1(C)[C@H]2CC[C@@H]3[C@H]4[C@H](C(C)C)CC[C@]4(C(=O)O)CC[C@@]3(C)[C@]2(C)CC[C@H]1C(C)COC(C)=O (stereo not given in full)"
testresult = 335

[[record]]
compound = "COC(=O)CC[C@]1(C)[C@H]2CC[C@@H]3[C@H]4[C@H](C(C)C)CC[C@]4(C(=O)NCCCCCCCNC(C)=O)CC[C@@]3(C)[C@]2(C)CC[C@H]1C(C)COC(C)=O (stereo not given in full)"
testresult = 490


Consider the record given below.
Data request: GET /values?readout=IC50&item= COC(=O)CC[C@]1(C)[C@H]2CC[C@@H]3[C@H]4[C@H](C(C)C)CC[C@]4(C(=O)O)CC[C@@]3(C)[C@]2(C)CC[C@H]1C(C)CO (stereo not given in full)
Data returned: 323

---

system: Raji; assay: Chemopreventive activity in human Raji cells assessed as inhibition of TPA-induced EBV-early antigen activation by measuring EBV-EA positive cells at 10 molar ratio/20 ng/ml of TPA after 48 hrs by immunofluorescence analysis; type: cell-based; parameters: scale not given: the % may be the effect or the level left; conditions: human gammaherpesvirus 4
parameterMeasured: Activity

Worked cases, Activity given:
[[record]]
compound = "COC(=O)CC[C@]1(C)[C@H]2CC[C@@H]3[C@H]4[C@H](C(C)C)CC[C@]4(C(=O)O)CC[C@@]3(C)[C@]2(C)CC[C@H]1C(C)COC(C)=O (stereo not given in full)"
testresult = "98.2%"

[[record]]
compound = "CC(=O)NCCCCCCCNC(=O)[C@]12CC[C@@H](C(C)C)[C@@H]1[C@H]1CC[C@@H]3[C@@](C)(CCC(=O)O)[C@H](C(C)CO)CC[C@@]3(C)[C@]1(C)CC2 (stereo not given in full)"
testresult = "100%"

[[record]]
compound = "COC(=O)CC[C@]1(C)[C@H]2CC[C@@H]3[C@H]4[C@H](C(C)C)CC[C@]4(C(=O)O)CC[C@@]3(C)[C@]2(C)CC[C@H]1C(C)COC(=O)CC(C)(C)C(=O)O (stereo not given in full)"
testresult = "100%"

[[record]]
compound = "C=C(C)[C@@H]1CC[C@]2(C)[C@H](CC[C@@H]3[C@H]4[C@H](C(C)C)CC[C@]4(C(=O)O)CC[C@]32C)[C@@]1(C)CCC(=O)OC"
testresult = "94.2%"


Data request: GET /values?readout=Activity&item= CC(=O)NCCCCCCCNC(=O)[C@]12CC[C@@H](C(C)C)[C@@H]1[C@H]1CC[C@@H]3[C@@]4(C)CCC(=O)OC(C)(C)[C@@H]4CC[C@@]3(C)[C@]1(C)CC2
Data returned: 100%

---

test system: Raji; assay: Chemopreventive activity in human Raji cells assessed as inhibition of TPA-induced EBV-early antigen activation by measuring EBV-EA positive cells at 10 molar ratio/20 ng/ml of TPA after 48 hrs by immunofluorescence analysis; type: cell-based; set-up: scale not given: the % may be the effect or the level left; conditions: human gammaherpesvirus 4
parameterMeasured: Activity (%)
Kindly answer with a numeric value in %, unit omitted.

[[record]]
molecule = "COc1cc(/C=C/C(=O)CC(=O)/C=C/c2ccc(O)c(OC)c2)ccc1O"
testedsystem = "Raji"
testresult = 100


Data request: GET /values?readout=Activity&item= C=C(C)[C@@H]1CC[C@]2(C)[C@H](CC[C@@H]3[C@H]4[C@H](C(C)C)CC[C@]4(C(=O)NCCCCCCCNC(C)=O)CC[C@]32C)[C@@]1(C)CCC(=O)O
Data returned: 100

Data request: Please give the result for COC(=O)CC[C@]1(C)[C@H]2CC[C@@H]3[C@H]4[C@H](C(C)C)CC[C@]4(C(=O)O)CC[C@@]3(C)[C@]2(C)CC[C@H]1C(C)CO (some centres not stated) too.
Data returned: 96.3

Data request: Please give the result for COC(=O)CC[C@]1(C)[C@H]2CC[C@@H]3[C@H]4[C@H](C(C)C)CC[C@]4(C(=O)NCCCCCCCNC(C)=O)CC[C@@]3(C)[C@]2(C)CC[C@H]1C(C)COC(C)=O (some centres not stated) too.
Data returned: 100

Data request: Please give the result for C=C(C)[C@@H]1CC[C@]2(C)[C@H](CC[C@@H]3[C@H]4[C@H](C(C)C)CC[C@]4(C(=O)NCCCCCCCNC(C)=O)CC[C@]32C)[C@@]1(C)CCC(=O)OC too.
Data returned: 100

Data request: Please give the result for C=C(C)[C@@H]1CC[C@]2(C)[C@H](CC[C@@H]3[C@H]4[C@H](C(C)C)CC[C@]4(C(=O)O)CC[C@]32C)[C@@]1(C)CCC(=O)O too.
Data returned: 91.6

Data request: Please give the result for CC(=O)NCCCCCCCNC(=O)[C@]12CC[C@@H](C(C)C)[C@@H]1[C@H]1CC[C@@H]3[C@@](C)(CCC(=O)O)[C@H](C(C)COC(=O)CC(C)(C)C(=O)O)CC[C@@]3(C)[C@]1(C)CC2 (some centres not stated) too.
Data returned: 100
